tgt: HCMV polymerase (Human cytomegalovirus, UniProt P08546)
Construct: made in house; host or cells: recombinant baculovirus-infected SF-9 cells
Sequence (P08546 whole entry): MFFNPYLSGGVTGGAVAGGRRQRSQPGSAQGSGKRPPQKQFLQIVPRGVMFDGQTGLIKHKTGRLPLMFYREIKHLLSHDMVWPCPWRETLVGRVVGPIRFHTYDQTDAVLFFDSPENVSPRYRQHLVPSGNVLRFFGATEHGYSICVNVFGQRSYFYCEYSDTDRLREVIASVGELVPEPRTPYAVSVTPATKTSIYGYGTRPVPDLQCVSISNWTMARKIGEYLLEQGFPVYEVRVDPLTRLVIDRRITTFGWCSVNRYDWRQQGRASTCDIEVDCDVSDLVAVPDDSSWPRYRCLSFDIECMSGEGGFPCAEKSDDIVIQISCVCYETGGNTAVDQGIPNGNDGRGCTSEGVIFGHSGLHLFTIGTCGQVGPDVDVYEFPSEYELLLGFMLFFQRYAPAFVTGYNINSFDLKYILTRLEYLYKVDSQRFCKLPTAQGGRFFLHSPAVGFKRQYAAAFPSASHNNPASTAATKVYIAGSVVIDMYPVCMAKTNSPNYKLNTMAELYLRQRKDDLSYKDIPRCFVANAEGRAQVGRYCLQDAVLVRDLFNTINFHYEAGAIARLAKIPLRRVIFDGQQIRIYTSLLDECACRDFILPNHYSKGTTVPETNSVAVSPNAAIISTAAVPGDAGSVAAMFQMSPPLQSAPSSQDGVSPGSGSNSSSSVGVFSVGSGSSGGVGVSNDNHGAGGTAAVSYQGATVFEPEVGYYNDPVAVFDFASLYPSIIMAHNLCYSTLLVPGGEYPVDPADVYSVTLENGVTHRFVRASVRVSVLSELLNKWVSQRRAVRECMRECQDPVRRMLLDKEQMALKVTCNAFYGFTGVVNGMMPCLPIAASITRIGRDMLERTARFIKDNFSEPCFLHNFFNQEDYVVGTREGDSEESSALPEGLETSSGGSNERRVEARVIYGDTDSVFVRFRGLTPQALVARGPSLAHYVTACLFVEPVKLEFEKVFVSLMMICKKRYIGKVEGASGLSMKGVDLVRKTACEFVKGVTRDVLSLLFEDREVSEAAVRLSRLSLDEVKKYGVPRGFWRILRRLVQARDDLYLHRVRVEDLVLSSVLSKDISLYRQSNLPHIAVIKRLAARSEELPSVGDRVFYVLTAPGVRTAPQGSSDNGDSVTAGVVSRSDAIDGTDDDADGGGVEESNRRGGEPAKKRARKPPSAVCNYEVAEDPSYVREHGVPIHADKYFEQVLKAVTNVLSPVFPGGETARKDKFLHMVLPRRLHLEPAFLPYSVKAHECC
experiment: HCMV polymerase scintillation proximity assay (SPA)
Assay type: biochemical
test context: HCMV polymerase, SPA; read-out: Polymerase IC50 HCMV
pIC50: −log10 of the molar value.
Recorded pIC50, one value per entry.
measure name: pIC50

CN(Cc1cc2c(=O)c(C(=O)NCc3ccc(Cl)cc3)cn(C)c2s1)C[C@@H](O)c1ccn[nH]1 (single isomer, unassigned) [Example 19]; 6.68
CN(Cc1cc2c(=O)c(C(=O)NCc3ccc(Cl)cc3)cn(CC(O)CO)c2s1)C[C@@H](O)c1ccco1 (some centres unmarked) [Example 26]; 6.82
CCn1cc(C(=O)NCc2ccc(Cl)cc2)c(=O)c2cc(CN(C)CC(O)c3cc4ccccc4o3)sc21 (racemic) [Example 22]; 7.05
CN(Cc1cc2c(=O)c(C(=O)NCc3ccc(Cl)cc3)cn(CCOCCO)c2s1)C[C@@H](O)c1ccco1 [Example 35]; 6.25
CN(Cc1cc2c(=O)c(C(=O)NCc3ccc(Cl)cc3)cn(C)c2s1)CC(O)c1ccn[nH]1 (racemic) [Example 18]; 6.46
CN(Cc1cc2c(=O)c(C(=O)NCc3ccc(Cl)cc3)cn(CCO)c2s1)CC(O)c1cc2ccccc2o1 (racemic) [Example 29]; 6.22
CCCn1cc(C(=O)NCc2ccc(Cl)cc2)c(=O)c2cc(CN(C)CC(O)c3cc4ccccc4o3)sc21 (racemic) [Example 23]; 6.59
CN(Cc1cc2c(=O)c(C(=O)NCc3ccc(Cl)cc3)cn(C)c2s1)CC(O)c1ccoc1 (racemic) [Example 4]; 6.60
CN(Cc1cc2c(=O)c(C(=O)NCc3ccc(Cl)cc3)cn(C)c2s1)CC(O)c1ccc[nH]1 (racemic) [Example 7]; 6.52
CN(Cc1cc2c(=O)c(C(=O)NCc3ccc(Cl)cc3)cn(CCO)c2s1)C[C@@H](O)c1ccco1 [Example 34]; 6.62
COCCn1cc(C(=O)NCc2ccc(Cl)cc2)c(=O)c2cc(CN(C)CC(O)c3cc4ccccc4o3)sc21 (racemic) [Example 24]; 6.51
CN(Cc1cc2c(=O)c(C(=O)NCc3ccc(Cl)cc3)cn(C)c2s1)CC(O)c1ccc(C#N)s1 (racemic) [Example 15]; 6.62
Cc1cc(C(O)CN(C)Cc2cc3c(=O)c(C(=O)NCc4ccc(Cl)cc4)cn(C)c3s2)oc1C (racemic) [Example 30]; 6.85
COCCn1cc(C(=O)NCc2ccc(Cl)cc2)c(=O)c2cc(CN(C)C[C@@H](O)c3ccco3)sc21 [Example 21]; 6.46

Sourced from patent US20050049245A1
